Listed here: items and their measured IC50.
molecular target: Peroxisome proliferator-activated receptor gamma (Homo sapiens); assay: Displacement of [3H]-AD-5061 from human GST-tagged PPARgamma
Sequence (P37231 whole entry): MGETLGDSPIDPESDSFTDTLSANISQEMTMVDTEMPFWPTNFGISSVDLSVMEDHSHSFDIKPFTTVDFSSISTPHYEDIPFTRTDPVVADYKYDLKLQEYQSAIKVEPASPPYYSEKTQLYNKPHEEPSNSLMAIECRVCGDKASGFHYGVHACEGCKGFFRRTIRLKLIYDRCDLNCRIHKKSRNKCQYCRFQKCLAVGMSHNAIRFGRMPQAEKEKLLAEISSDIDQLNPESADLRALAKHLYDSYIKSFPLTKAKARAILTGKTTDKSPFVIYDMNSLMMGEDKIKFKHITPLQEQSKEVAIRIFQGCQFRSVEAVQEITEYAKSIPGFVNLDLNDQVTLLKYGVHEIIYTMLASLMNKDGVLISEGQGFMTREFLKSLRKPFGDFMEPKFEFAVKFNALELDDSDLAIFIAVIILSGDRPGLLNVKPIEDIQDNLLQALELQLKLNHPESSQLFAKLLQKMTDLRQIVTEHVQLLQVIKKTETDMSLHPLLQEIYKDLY
Hi! Could you send only the number? It should be in µM, unit omitted.

Previously resolved entries follow.
- smiles_data: "CCCCCS(=O)(=O)NC(=O)CCc1cc(OC(C)C)nn1Cc1ccc(C(F)(F)F)cc1Cl"
  value_unit: "µM"
  measurement: 0.021
- smiles_data: "CCCCCS(=O)(=O)NC(=O)/C=C/c1cc(OC(C)C)nn1Cc1ccc(C(F)(F)F)cc1Cl"
  value_unit: "µM"
  measurement: 0.023
- smiles_data: "CC(C)CCS(=O)(=O)NC(=O)/C=C/c1cc(OC(C)C)nn1Cc1ccc(C(F)(F)F)cc1Cl"
  value_unit: "µM"
  measurement: 0.015

Qu. # IC50 lookup, item CCCCCS(=O)(=O)NC(=O)/C=C/c1cc(C2CC2)nn1Cc1ccc(C(F)(F)F)cc1Cl
Ans. 0.012

All figures here come from ChEMBL document CHEMBL1932914.
